biological target: KRas G12C (Homo sapiens, UniProt P01116, G12C); type: binding; conditions: TR-FRET displacement, read-out: Binding to KRas (IC50 nM) G12C
Sequence (P01116 1-169 isoform P01116-2 G12C): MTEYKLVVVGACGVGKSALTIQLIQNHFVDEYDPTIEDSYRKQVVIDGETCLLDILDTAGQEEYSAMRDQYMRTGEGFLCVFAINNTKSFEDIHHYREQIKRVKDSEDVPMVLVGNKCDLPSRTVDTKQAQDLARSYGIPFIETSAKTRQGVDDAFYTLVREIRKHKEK
recorded metric: IC50 (nM)

(a) CN1CCC[C@H]1COc1nc2c(c(N3CCCC4(CC(O)C4)C3)n1)CCN(c1cccc3cccc(Cl)c13)C2 (stereo partly drawn) [Example 484]
(b) CCc1c(F)ccc2cc(O)cc(N3CCc4c(nc(OCC56CCCN5C/C(=C\F)C6)nc4N4C[C@@H]5C[C@H](C4)[C@H](O)C5)C3)c12 (stereo partly drawn) [Example 576]
Data request: a or b : whose IC50 is greater? Respond with the label that goes with your answer.
Data returned: a
(a: 1540 nM, b: 3 nM)

###

system: MKN1 cells; assay: Inhibition of KRas-mediated phosphorylation of ERK (Cisbio HTRF pERK), MKN1 cells; assay type: cell-based; details: Homo sapiens, MKN-1, 3 hour compound incubation, Cisbio pERK HTRF
recorded metric: IC50 (nM)

(P) CCc1c(F)ccc2cc(O)cc(N3CCc4c(nc(OC[C@@]56CCCN5C[C@H](F)C6)nc4N4CCCn5nc(C(=O)N6C[C@@H](C)N[C@@H](C)C6)cc5C4)C3)c12 [Example 303]
(Q) CCc1c(F)ccc2cc(O)cc(N3CCc4c(nc(OCC5(CN(C)C)CC5)nc4N4CCCn5nncc5C4)C3)c12 [Example 430]
(R) CCc1c(F)ccc2cc(O)cc(N3CCc4c(nc(OC[C@@]56CCCN5C[C@H](F)C6)nc4N4CCCn5nc(NC(C)=O)cc5C4)C3)c12 [Example 356]
Data request: Please list these in order of increasing IC50. Thank you! // respond by listing labels in the order requested
Data returned: P, Q, R
(P: 22.5 nM, Q: 94.9 nM, R: 216 nM)

(a) CCc1c(F)ccc2cc(O)cc(N3CCc4c(nc(OC[C@@]56CCCN5C[C@H](F)C6)nc4N4CCCn5nc(C(=O)N6CC7CC(C6)N(C)C7)cc5C4)C3)c12 (some centres unmarked) [Example 500]
(b) CCc1c(F)ccc2cc(O)cc(N3CCc4c(nc(OC[C@@]56CCCN5C[C@H](F)C6)nc4N4CCCCn5nc(C(=O)N(C)C)c(Br)c5C4)C3)c12 [Example 507]
(c) CCc1c(F)ccc2cc(O)cc(N3CCc4c(nc(OC[C@@]56CCCN5C[C@H](F)C6)nc4N4CCCn5nc(C(=O)NC(C)C)c(C)c5C4)C3)c12 [Example 371]
(d) CCc1c(F)ccc2cc(O)cc(N3CCc4c(nc(OC[C@@]56CCCN5C[C@H](F)C6)nc4N4CCCn5nc(CNC(=O)NC)cc5C4)C3)c12 [Example 352]
(e) C[C@@H]1C[C@@H]1c1c(Cl)cc2[nH]ncc2c1N1CCc2c(nc(OCC34CCCN3CCC4)nc2N2CCC[C@]3(C2)NC(=O)NC3=O)C1 [Example 449]
Data request: Put the items in order so that reported IC50 rises from first to last. // respond by listing labels in the order requested
Data returned: b, c, a, e, d

(A) CCc1c(F)ccc2cc(O)cc(N3CCc4c(nc(OC[C@@]56CCCN5C[C@H](F)C6)nc4N4CCCn5nc(C(=O)N6CC7(CCCN7)C6)cc5C4)C3)c12 [Example 277]
(B) CCCCN(C)C(=O)c1cc2n(n1)CCCN(c1nc(OC[C@@]34CCCN3C[C@H](F)C4)nc3c1CCN(c1cc(O)cc4ccc(F)c(CC)c14)C3)C2 [Example 496]
Data request: Given the listed items, does A or B have the lesser reported IC50? Respond with the label that goes with your answer.
Data returned: B

(A) CCc1c(F)ccc2cc(O)cc(N3CCc4c(nc(OC[C@@]56CCCN5C[C@H](F)C6)nc4N4CCCn5nc(C(=O)N6CC7CN(C8COC8)CC7C6)cc5C4)C3)c12 (some centres unmarked) [Example 503]
(B) CCc1c(F)ccc2cc(O)cc(N3CCc4c(nc(OC[C@@]56CCCN5C[C@H](F)C6)nc4N4CCCn5nc(C(=O)O)cc5C4)C3)c12 [Example 389]
Data request: A or B : whose IC50 is greater? Respond with the label that goes with your answer.
Data returned: B
